Test system: dengue serotype 2
Protocol summary: Antiviral assay (dengue serotype 2), CPE inhibition in Vero cells with ATPLite luminescence readout
Assay type: cell-based, dengue virus
Experimental context: Dengue virus; Vero cells 1500 cells/well, MOI 0.1, 5-6 days, ATPLite; Exp. # 1; read-out: EC50 (μM) Exp. # 1
Measurement label: EC50 (µM)
One number for each entry, in µM.

* NC(=O)c1ncn([C@@H]2O[C@H](CO)[C@@H](O)[C@H]2O)n1 | 52
* C[C@@]1(O)[C@H](O)[C@@H](CO)O[C@H]1n1ccc(N)nc1=O | 13.5

Now consider the entry below.
Record request: EC50 value, item `O=c1cnn([C@@H]2O[C@H](CO)[C@@H](O)[C@H]2O)c(=O)[nH]1`
5.52
